Hello, the source for this data is patent US20240327535A1, in case you need it.

molecular target: T1, extracellular domain of rhesus monkey BCMA (rhesus monkey, UniProt F7FFA0 1-53); assay: Octet BLI; Fab 200 nM
T1 construct: extracellular domain; also called RhBCMA
T1 sequence (F7FFA0 entry or part of it): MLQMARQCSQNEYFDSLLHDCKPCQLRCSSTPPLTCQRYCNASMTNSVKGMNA
reported property: log10 of Kd (log10 of the value in nM)

binder	endpoint value
AB200-(2Vk44)_R2-VH-v54 (Fab, V domains shown) VH: QVQLVQSGAEVKKPGSSVKVSCKASGGSFSNYWIHWVRQAPGQGLEWMGATYRIHSDTNYNEKFKSRVTITADKSTSTAYMELSSLRSEDTAVYYCARGAIYHGYDVIENWGQGTLVTVSS VL: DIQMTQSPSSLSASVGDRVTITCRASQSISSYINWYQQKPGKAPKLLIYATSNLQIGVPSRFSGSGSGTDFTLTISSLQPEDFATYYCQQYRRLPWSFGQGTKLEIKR	2.18
AB200-(2Vk44)_R2-VH-v60 (Fab, V domains shown) VH: QVQLVQSGAEVKKPGSSVKVSCKASGGTFSNYWIHWVRQAPGQGLEWMGGTYRIQSDTYYNQKFKSRVTITADKSTSTAYMELSSLRSEDTAVYYCARGAIYHGYDVIENWGQGTLVTVSS VL: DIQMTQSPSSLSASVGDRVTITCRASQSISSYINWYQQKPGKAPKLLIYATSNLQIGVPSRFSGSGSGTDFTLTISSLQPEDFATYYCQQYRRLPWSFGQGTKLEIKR	1.59
AB200-(2Vk44)_R2-VH-v68 (Fab, V domains shown) VH: QVQLVQSGAEVKKPGSSVKVSCKASGGTFSNYWIHWVRQAPGQGLEWMGATYRIHSDTNYAQKFKSRVTITADESTSTAYMELSSLRSEDTAVYYCARGAIYHGFDVIDNWGQGTLVTVSS VL: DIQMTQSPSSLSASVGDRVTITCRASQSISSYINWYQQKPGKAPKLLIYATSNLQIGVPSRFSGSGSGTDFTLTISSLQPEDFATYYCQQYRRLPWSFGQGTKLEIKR	2.04
AB200-(2Vk44)_R2-VH-v72 (Fab, V domains shown) VH: QVQLVQSGAEVKKPGSSVKVSCKASGGTFSNYWIHWVRQAPGQGLEWMGATYRIQSDTYYAQKFKSRVTITADKSTSTAYMELSSLRSEDTAVYYCARGAVYHGYDVIDNWGQGTLVTVSS VL: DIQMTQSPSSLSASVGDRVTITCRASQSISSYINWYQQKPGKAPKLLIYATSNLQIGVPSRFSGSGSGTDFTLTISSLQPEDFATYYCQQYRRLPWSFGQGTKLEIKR	1.09
AB200-(2Vk44)_R2-VH-v44 (Fab, V domains shown) VH: QVQLVQSGAEVKKPGSSVKVSCKASGGTFTNYWIHWVRQAPGQGLEWMGATYRIHSDTNYAQKFKSRVTITADKSTSTAYMELSSLRSEDTAVYYCARGAIYHGYDVIENWGQGTLVTVSS VL: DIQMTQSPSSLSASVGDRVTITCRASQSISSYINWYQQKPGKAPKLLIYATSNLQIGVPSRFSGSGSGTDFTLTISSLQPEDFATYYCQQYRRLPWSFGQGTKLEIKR	2.46
